B1: TRIM55 (parent)
chain: ICPICLEMFTKPVVILPCQHNLCR

variants of: B1; experiment: protein stability index of a GFP-peptide fusion (GPS, HEK-293T) (PSI 1-6); higher = more stable; conditions: c terminus: a fixed tail appended;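 also: lentivirally expressed fusions sorted by FACS into six bins by GFP to DsRed ratio, PSI derived from sequencing read proportions per bin multiplied by bin number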
Returns met if the recorded protein stability index is greater than or equal to 2, and not met otherwise.

Worked examples, 5 variants total:
[[record]]
primary_sequence = "ICPICLLMFTKPVVILPCQHNLCR"
category_label = "met"

[[record]]
primary_sequence = "ICPICLEMFTKPVVILPQQHNLCR"
category_label = "met"

[[record]]
primary_sequence = "ICPICLEMFTKPVVILKCQHNLCR"
category_label = "not met"

[[record]]
primary_sequence = "ICPICLEMFTKPVVILPCQHQLCR"
category_label = "met"

[[record]]
primary_sequence = "ICPICLEMFTKPVVILPCQHDLCR"
category_label = "met"


Dear colleague, could you confirm whether ICPICLEMFTKPVVILPCQHNLCP has protein stability index at or above 2?
met

Item: ICPICLEMFTKPVVILPAQHNLCR
not met

Item: ICPICLEMFTKPVVSLPCQHNLCR
met

Item: ACPICLEMFTKPVVILPCQHNLCR
met
